Recorded Activity values for a group of molecules are listed next.
tested on: Severe acute respiratory syndrome coronavirus 2; assay: Inhibition of recombinant His6-tagged SARS-CoV-2 main protease assessed as residual enzyme activity at 100 uM using Dabcyl-KTSAVLQ-SGFRKM-E(Edans-NH2) as substrate preincubated for 15 mins followed by substrate addition by FRET based assay relative to control
Dear colleague, please return just the value in %, with no unit written.

Measured Activity (Severe acute respiratory syndrome coronavirus 2), entry C=CCN1C[C@H](C(=O)N(CCCN(C)C)C(=O)NCC)C[C@@H]2c3cccc4[nH]cc(c34)C[C@H]21 [CABERGOLINE] : 100

###

tested on: Severe acute respiratory syndrome coronavirus 2; assay: Inhibition of recombinant His6-tagged SARS-CoV-2 main protease assessed as residual enzyme activity at 100 uM using Dabcyl-KTSAVLQ-SGFRKM-E(Edans-NH2) as substrate preincubated for 15 mins followed by substrate addition by FRET based assay relative to control
property measured: Activity (%)
Answer in %, number only, no unit symbol.

A selection of reference data follows.
# molecule, Activity, %
data = [
    ("CCC[C@@]1(CCc2ccccc2)CC(O)=C([C@H](CC)c2cccc(NS(=O)(=O)c3ccc(C(F)(F)F)cn3)c2)C(=O)O1", 65),
    ("CS(=O)(=O)CCNCc1ccc(-c2ccc3ncnc(Nc4ccc(OCc5cccc(F)c5)c(Cl)c4)c3c2)o1", 100),
    ("CC1(C)S[C@@H]2[C@H](NC(=O)[C@H](N)c3ccccc3)C(=O)N2[C@H]1C(=O)OC1OC(=O)c2ccccc21 (stereo partly specified)", 90),
    ("COC(=O)C1=C(C)NC(C)=C(C(=O)OC(C)(C)CN(C)CCC(c2ccccc2)c2ccccc2)C1c1cccc([N+](=O)[O-])c1 (stereo unspecified)", 8),
    ("CC1=C(C(=O)OCCN(Cc2ccccc2)c2ccccc2)C(c2cccc([N+](=O)[O-])c2)C(P2(=O)OCC(C)(C)CO2)=C(C)N1 (stereo unspecified)", 18),
]

API: the following record is the query input.
Query N#Cc1ccc2c(c1)N(CCCN1CCC(O)CC1)c1ccccc1S2 yields Activity of 55

###

assay: Inhibition of recombinant His6-tagged SARS-CoV-2 main protease using Dabcyl-KTSAVLQ-SGFRKM-E(Edans-NH2) as substrate preincubated for 15 mins followed by substrate addition by FRET based assay; set-up: species or system Severe acute respiratory syndrome coronavirus 2; conditions: read-out: IC50
property measured: IC50 (µM)
Provide only the numeric value, understood in µM.

See these solved cases before continuing.
# molecule, unit tag, IC50
measured = [
    ("COC(=O)C1=C(C)NC(C)=C(C(=O)OC(C)(C)CN(C)CCC(c2ccccc2)c2ccccc2)C1c1cccc([N+](=O)[O-])c1 (stereo not drawn)", "µM", 16.2),
    ("COC(=O)C1=C(C)NC(C)=C(C(=O)OCCN2CCN(C(c3ccccc3)c3ccccc3)CC2)C1c1cccc([N+](=O)[O-])c1 (stereo not drawn)", "µM", 4.81),
]

The molecule listed as COc1nc2ccc(Br)cc2cc1[C@@H](c1ccccc1)[C@@](O)(CCN(C)C)c1cccc2ccccc12 shows IC50 equal to 18.7

###

test system: Severe acute respiratory syndrome coronavirus 2; assay: Inhibition of recombinant His6-tagged SARS-CoV-2 main protease assessed as residual enzyme activity at 100 uM using Dabcyl-KTSAVLQ-SGFRKM-E(Edans-NH2) as substrate preincubated for 15 mins followed by substrate addition by FRET based assay relative to control
property measured: Activity (%)
Use % as the unit, but write only the number.

# compound, unit tag, reported value
rows = [
    ("Cc1c(O)cccc1C(=O)N[C@@H](CSc1ccccc1)[C@H](O)CN1C[C@H]2CCCC[C@H]2C[C@H]1C(=O)NC(C)(C)C", "%", 64),
    ("CC(C)(C)NC(=O)N[C@H](C(=O)N1C[C@H]2[C@@H]([C@H]1C(=O)NC(CC1CCC1)C(=O)C(N)=O)C2(C)C)C(C)(C)C (some centres undefined)", "%", 6),
    ("CN1CCCC(n2nc(Cc3ccc(Cl)cc3)c3ccccc3c2=O)CC1 (centres undefined)", "%", 69),
]

Now for another entry.
For CN1C(C(=O)Nc2ccccn2)=C(OC(=O)/C=C/c2ccccc2)c2ccccc2S1(=O)=O [PIROXICAM CINNAMATE] the compound record lists Activity as 75

###

# Lookup of reported IC50 keyed by entry
experiment: Inhibition of recombinant His6-tagged SARS-CoV-2 main protease using Dabcyl-KTSAVLQ-SGFRKM-E(Edans-NH2) as substrate preincubated for 15 mins followed by substrate addition by FRET based assay; parameters: species or system Severe acute respiratory syndrome coronavirus 2; conditions: read-out: IC50
Hi! Could you send only the number? It should be in µM, unit omitted.

Example results:
# molecule, IC50 / µM
records = [
    ("Cc1c(O)cccc1C(=O)N[C@@H](CSc1ccccc1)[C@H](O)CN1C[C@H]2CCCC[C@H]2C[C@H]1C(=O)NC(C)(C)C", 250),
    ("CC(=O)[C@]1(O)Cc2c(O)c3c(c(O)c2[C@@H](O[C@H]2C[C@H](N)[C@H](O)[C@H](C)O2)C1)C(=O)c1ccccc1C3=O [IDARUBICIN]", 250),
]

Shifting focus to the molecule that follows.
Entry CN1CCCC(n2nc(Cc3ccc(Cl)cc3)c3ccccc3c2=O)CC1 (stereo unspecified) [AZELASTINE] , IC50 reported as 20

###

experiment: Inhibition of recombinant C-terminal His6-tagged SARS-CoV-2 main protease expressed in Escherichia coli Top10 using FRET-based decapeptide as substrate preincubated for 30 mins followed by substrate addition by FRET assay; parameters: species or system Severe acute respiratory syndrome coronavirus 2
property measured: pIC50
In plain terms, pIC50 is the concentration in mol/L turned into minus its base-10 logarithm.

For reference, reported pIC50 for Cc1c(O)cccc1C(=O)N[C@@H](CSc1ccccc1)[C@H](O)CN1C[C@H]2CCCC[C@H]2C[C@H]1C(=O)NC(C)(C)C stands at 3.63

###

system: Severe acute respiratory syndrome coronavirus 2; assay: Inhibition of recombinant His6-tagged SARS-CoV-2 main protease assessed as residual enzyme activity at 100 uM using Dabcyl-KTSAVLQ-SGFRKM-E(Edans-NH2) as substrate preincubated for 15 mins followed by substrate addition by FRET based assay relative to control
property measured: Activity (%)
Field format: number, assumed %, no unit text.

Below, 2 compounds whose answers are already recorded.
# compound, reported value
records = [
    ("COC(=O)C1=C(C)NC(C)=C(C(=O)OCCN2CCN(C(c3ccccc3)c3ccccc3)CC2)C1c1cccc([N+](=O)[O-])c1 (stereo unspecified)", 1),
    ("N#Cc1ccccc1-c1cc(-c2ccccn2)cn(-c2ccccc2)c1=O", 43),
]

Sample COc1nc2ccc(Br)cc2cc1[C@@H](c1ccccc1)[C@@](O)(CCN(C)C)c1cccc2ccccc12 ; Activity observed: 28

Entry CC(=O)[C@]1(O)Cc2c(O)c3c(c(O)c2[C@@H](O[C@H]2C[C@H](N)[C@H](O)[C@H](C)O2)C1)C(=O)c1ccccc1C3=O , Activity reported as 82

Short answer for CC(C)(C)NC(=O)[C@@H]1CN(Cc2cccnc2)CCN1C[C@@H](O)C[C@@H](Cc1ccccc1)C(=O)N[C@H]1c2ccccc2C[C@H]1O.O : Activity was 100

The measured Activity associated with CC(C)/N=c1\cc2n(-c3ccc(Cl)cc3)c3ccccc3nc-2cc1Nc1ccc(Cl)cc1 reads 88

###

pIC50 for assorted molecules
assay: Inhibition of recombinant His6-tagged SARS-CoV-2 main protease using Dabcyl-KTSAVLQ-SGFRKM-E(Edans-NH2) as substrate preincubated for 15 mins followed by substrate addition by FRET based assay; set-up: species or system Severe acute respiratory syndrome coronavirus 2; conditions: read-out: IC50
pIC50: −log10 of the molar value.

# molecule, pIC50
measured = [
    ("CC(C)/N=c1\\cc2n(-c3ccc(Cl)cc3)c3ccccc3nc-2cc1Nc1ccc(Cl)cc1", "< 3.22"),
]

Briefly, pIC50 measured for CCC[C@@]1(CCc2ccccc2)CC(O)=C([C@H](CC)c2cccc(NS(=O)(=O)c3ccc(C(F)(F)F)cn3)c2)C(=O)O1 : < 3.22

Form field pIC50, entry CN1C(C(=O)Nc2ccccn2)=C(OC(=O)/C=C/c2ccccc2)c2ccccc2S1(=O)=O [PIROXICAM CINNAMATE] : < 3.22
